target: human CA-XII (Homo sapiens); construct: purchased Creative BioMart CA12-261H; assay: Surface Plasmon Resonance (SPR) binding kinetics to recombinant human CA-XII (Biacore 8K, single-cycle kinetics, 1:1 binding model); conditions: read-out: CAXII KD, Chelated Metal: Lu-175, 25° C., pH 7.4
Assay Endpoint: Kd

input: Bench note: what Kd did NS(=O)(=O)c1nnc(NC(=O)C23CCC(c4cn(CCNC(=O)[C@@H]5CN(C(=O)CCCc6ccc(O)cc6)CCN5C(=O)CC[C@H](NC(=O)C[C@H](NC(=O)CN5CCN(CC(=O)O)CCN(CC(=O)O)CCN(CC(=O)O)CC5)C(=O)O)C(=O)O)nn4)(CC2)CC3)s1.[Lu+3] show?
output: 1 to 2.5 nM

input: Give its Kd value. Item: CC(CCC(=O)N[C@@H](CC(=O)N[C@@H](CC(=O)N1CCN(C(=O)CCOCCOCCOCCOCCOCCOCCOCCOCCNC(=O)CN2CCN(CC(=O)O)CCN(CC(=O)O)CCN(CC(=O)O)CC2)C[C@H]1C(=O)NCCn1cc(C23CC(C(=O)Nc4nnc(S(N)(=O)=O)s4)(C2)C3)nn1)C(=O)O)C(=O)O)(c1ccc(O)cc1)c1ccc(O)cc1.[Lu+3]
output: > 10 nM

input: Fill in the blank: the reported Kd of CC(CCC(=O)N1CCC[C@H]1C(=O)N[C@@H](CC(=O)N1CCN(C(=O)CN2CCN(CC(=O)O)CCN(CC(=O)O)CCN(CC(=O)O)CC2)C[C@@H]1C(=O)NCCn1cc(C23CC(C(=O)Nc4nnc(S(N)(=O)=O)s4)(C2)C3)nn1)C(=O)O)(c1ccc(O)cc1)c1ccc(O)cc1.[Lu+3] is ____.
output: > 10 nM

* * *

molecular target: human CA-XII (Homo sapiens, UniProt O43570); construct: purchased Creative BioMart CA12-261H; test: Surface Plasmon Resonance (SPR) binding kinetics to recombinant human CA-XII (Biacore 8K, single-cycle kinetics, 1:1 binding model); conditions: Chelated Metal: Lu-175, 25° C., pH 7.4, read-out: CAXII KD
Sequence (O43570 25-354): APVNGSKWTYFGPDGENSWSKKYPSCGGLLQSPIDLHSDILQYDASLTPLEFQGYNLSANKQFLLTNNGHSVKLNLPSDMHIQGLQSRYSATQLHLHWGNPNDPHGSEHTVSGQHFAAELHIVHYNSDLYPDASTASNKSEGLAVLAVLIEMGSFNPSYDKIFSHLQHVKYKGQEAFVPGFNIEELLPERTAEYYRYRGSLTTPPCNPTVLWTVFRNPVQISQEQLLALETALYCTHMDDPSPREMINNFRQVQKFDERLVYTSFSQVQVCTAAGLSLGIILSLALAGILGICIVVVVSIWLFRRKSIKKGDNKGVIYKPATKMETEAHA
pKd: −log10 of the molar value.
Assay Endpoint: pKd

[[record]]
compound = "Cc1c(C(F)(F)F)n[nH]c1C(=O)N1CCC(C(=O)O)(C(=O)NCC(=O)N2CCN(C(=O)CN3CCN(CC(=O)O)CCN(CC(=O)O)CCN(CC(=O)O)CC3)C[C@H]2C(=O)NCCn2cc(C34CC(C(=O)Nc5nnc(S(N)(=O)=O)s5)(C3)C4)nn2)CC1.[Lu+3]"
measurement = "< 8.00"

[[record]]
compound = "NS(=O)(=O)c1nnc(NC(=O)C23CC(c4cn(CCNC(=O)[C@@H]5CN(C(=O)CN6CCN(CC(=O)O)CCN(CC(=O)O)CCN(CC(=O)O)CC6)CCN5C(=O)C[C@H](NC(=O)C[C@H](NC(=O)c5ccc(C6(C(F)(F)F)CC6)cc5)C(=O)O)C(=O)O)nn4)(C2)C3)s1.[Lu+3]"
measurement = "8.00 to 8.60"

[[record]]
compound = "NS(=O)(=O)c1nnc(NC(=O)C23CC(c4cn(CCNC(=O)[C@@H]5CN(C(=O)CN6CCN(CC(=O)O)CCN(CC(=O)O)CCN(CC(=O)O)CC6)CCN5C(=O)C[C@H](Nc5ncc(C(=O)NCc6ccc(C7CC7)cn6)cn5)C(=O)O)nn4)(C2)C3)s1.[Lu+3]"
measurement = "< 8.00"


input: # query: pKd of entry NC(=O)C1(C(=O)NCC(=O)N2CCN(C(=O)CN3CCN(CC(=O)O)CCN(CC(=O)O)CCN(CC(=O)O)CC3)C[C@H]2C(=O)NCCn2cc(C34CC(C(=O)Nc5nnc(S(N)(=O)=O)s5)(C3)C4)nn2)CCN(C(=O)CCn2nc(-c3ccc(O)cc3)c3ccc(O)cc32)CC1.[Lu+3]
output: < 8.00

input: Reported pKd, molecule NS(=O)(=O)c1nnc(NC(=O)C23CC(c4cn(C[C@H]5CN(C(=O)CN6CCN(CC(=O)O)CCN(CC(=O)O)CCN(CC(=O)O)CC6)CCN5C(=O)[C@@H]5COCCN5C(=O)CCc5n[nH]c6ccccc56)nn4)(C2)C3)s1.[Lu+3] : ____
output: < 8.00

input: Which pKd is listed for CC(CCCC(=O)N1CCOC[C@H]1C(=O)N[C@@H](CC(=O)N1CCN(C(=O)CN2CCN(CC(=O)O)CCN(CC(=O)O)CCN(CC(=O)O)CC2)C[C@@H]1C(=O)NCCn1cc(C23CC(C(=O)Nc4nnc(S(N)(=O)=O)s4)(C2)C3)nn1)C(N)=O)(c1ccc(O)cc1)c1ccc(O)cc1.[Lu+3] ?
output: < 8.00

input: Bench note: what pKd did NS(=O)(=O)c1nnc(NC(=O)C23CCC(c4cn(CCNC(=O)[C@@H]5CN(C(=O)CN6CCN(CC(=O)O)CCN(CC(=O)O)CCN(CC(=O)O)CC6)CCN5C(=O)CC[C@H](NC(=O)C[C@H](NC(=O)c5n[nH]c6ccc(O)cc56)C(=O)O)C(=O)O)nn4)(CC2)CC3)s1.[Lu+3] show?
output: > 9.00
